Numbers sourced from the RNAGym collection of RNA variant scans (doi:10.1126/science.aae0568).

B1: tRNA (parent)
chain: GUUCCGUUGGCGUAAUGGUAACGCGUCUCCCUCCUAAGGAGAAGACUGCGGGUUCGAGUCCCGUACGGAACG

Variants of: B1
Assay: yeast fitness relative to wild type (ratio to wild type); higher = fitter; tRNA-Arg(CCU), competitive growth, 37 C, YPD
Fewer inactive variants are shown than the library holds.
Decide by yeast fitness: equal to or exceeding 0.6 means yes, less means no.

# VARIANT_IDENTIFIER, CATEGORY_LABEL
measured = [
    ("A40G G50A", "yes"),
    ("A21U C33U G50A", "yes"),
    ("U3A G6U G12C C22A", "no"),
    ("C34G G44A C49A U53A A69U", "no"),
    ("G9A G10A U28C", "no"),
    ("C30G G39C U59C G63C", "no"),
    ("U8A A21C G56C", "no"),
    ("C24G A45U G67A", "no"),
    ("U26G A40G", "yes"),
    ("C4U A70G", "yes"),
    ("C4A G17A C60G", "yes"),
    ("C61G C62G A70C", "no"),
    ("C29U C33G G52A G58C A70G", "no"),
    ("C22U C34G G39A C66U", "no"),
    ("C46U U54C G68A", "no"),
    ("U8C C46U", "yes"),
    ("C4U C30A", "yes"),
    ("C5U C34U", "yes"),
    ("U3G A15G A21U C24U G38A C61G C66U A69U", "no"),
    ("C29G C34G", "no"),
    ("A14U U54C C62U G68C", "no"),
    ("A21G G25A", "yes"),
    ("C49A A57C A69U", "no"),
    ("C5U A15U G17C U26C", "no"),
    ("C24A C33A C49U U54G", "no"),
    ("C29G U47G A57G A69U", "no"),
    ("C31G A36U G48A A57C", "no"),
    ("U13C G50U", "yes"),
    ("C11G A15C C30U U53A C61G", "no"),
    ("U16A G17A C22G C61U", "no"),
    ("U8A G44A U64C C66A", "no"),
    ("C29A C66U", "yes"),
    ("C11G A14G A20U C27G C29U C62U", "no"),
    ("G39A A42G G67C", "no"),
    ("G25C C29A A65U", "no"),
    ("A21U A43U C49G", "no"),
    ("C5U G10C C30G C34U A42C G52A", "no"),
    ("A15G A21C U32C U64A", "no"),
    ("G10C A15U C33A A36U C62U", "no"),
    ("C4G G50A G56A", "yes"),
    ("C5U G50C A70U", "no"),
    ("A57G A65G A69C", "yes"),
    ("C27G U53C G56A C66U", "no"),
    ("A15C C49A G67C", "no"),
    ("C5U U47C G51A", "no"),
    ("C27G C29G C49U", "no"),
    ("U3G C5U A70G", "no"),
    ("U16C C33U A36C G56C", "no"),
    ("U3C U7A C29A G58A C61G A70U", "no"),
    ("C27G A40C", "no"),
    ("A14U C27U C66G", "no"),
    ("U28G C31U A40C A70U", "no"),
    ("G67U A69G", "yes"),
    ("U8A C24A C30U C31U G48C", "no"),
    ("U2G C30G", "yes"),
    ("U7G G23C A45U G51C", "no"),
    ("C11U C49G", "yes"),
    ("C11U A14C U54A", "no"),
    ("U8C G23C C27G G50A C66G A69G", "yes"),
    ("G6A C49U G58A", "yes"),
    ("G39C A40U A65C", "no"),
    ("G10A C11G G41C A45U", "no"),
    ("C5G G17A A20C", "no"),
    ("A15U A20G U28G C33U", "no"),
    ("A15G G68A", "yes"),
    ("C4U A20G U28C C31U G50C C55U C60G G63A C66U", "no"),
    ("G6A C31A G51C C55G A57U C66U", "no"),
    ("U2G C27G G67C", "no"),
    ("U8A U26C", "yes"),
    ("G25A C62A A65C", "no"),
    ("A15U C27G U28C C62G", "no"),
    ("U8A C30U A57C", "no"),
    ("U26A C31U A65C", "yes"),
    ("C22A C34G A36G G48C", "no"),
    ("C5U U19C U28A C66U G68A", "no"),
    ("A14G G23A C49A", "no"),
    ("U3G C4A G9A G56A C61G", "no"),
    ("A14G C24G C31U C55A C61A", "no"),
    ("C11U A15G C27G G56C", "no"),
    ("A14G A15C C30U G56C A69C", "no"),
    ("C11A A57C", "yes"),
]
